tested on: HeLa; experiment: Antiproliferative activity against human HeLa cells assessed as cell viability after 48 hrs by MTT assay; type: functional, cell-based
EXPERIMENTAL READOUT: IC50 (µM)
Reply numerically in µM, unit not repeated.

In: Any idea what IC50 was measured for O=C1[C@@H]2Cc3c([nH]c4ccccc34)CN2C(=O)[C@@H]2Cc3c([nH]c4ccccc34)CN12 ?
Out: 3.5
